Reported TGI is given for each of the following compounds.
# Test system: MOLT-4 leukemia
# TEST METHOD NOTES: NCI tumour cell line growth inhibition, 48 h

Cc1ccc(NC(=S)Nc2c(C)n(C)n(-c3ccccc3)c2=O)cc1: > 100 µM
CN(C)c1ccc(C(=O)c2ccc(N(C)C)c(N)c2)cc1N: > 57.6 µM
c1cc(C[S+]2CCCC2)ccc1C[S+]1CCCC1: > 100 µM
CC1=C(C)CC2(SC1)C(=O)c1ccccc1C2=O: > 100 µM
CS(=O)(=O)OCCN1CCN(C(=O)c2cccc3c(Nc4ccc(S(N)(=O)=O)cc4)c4ccccc4nc23)CC1: > 100 µM

Field TGI (MOLT-4 leukemia), entry N#Cc1cccc(C(=O)c2cnn(-c3ccc(F)cc3)c2N)c1 : > 25 µM

With MOLT-4 leukemia as the test system, NC(=O)C(Br)CBr (stereo not drawn) showed TGI of 4.15 µM

For O=C1CCC2(CC1CCSc1ccccc1)OCCO2 (stereo not drawn) on MOLT-4 leukemia, measured TGI was > 100 µM
